ASSAYED_TARGET: FLuc-C-HiBiT (Photinus pyralis)
Construct: firefly luciferase with C-terminal HiBiT tag, E. coli expressed
Sequence (P08659 whole entry, looked up): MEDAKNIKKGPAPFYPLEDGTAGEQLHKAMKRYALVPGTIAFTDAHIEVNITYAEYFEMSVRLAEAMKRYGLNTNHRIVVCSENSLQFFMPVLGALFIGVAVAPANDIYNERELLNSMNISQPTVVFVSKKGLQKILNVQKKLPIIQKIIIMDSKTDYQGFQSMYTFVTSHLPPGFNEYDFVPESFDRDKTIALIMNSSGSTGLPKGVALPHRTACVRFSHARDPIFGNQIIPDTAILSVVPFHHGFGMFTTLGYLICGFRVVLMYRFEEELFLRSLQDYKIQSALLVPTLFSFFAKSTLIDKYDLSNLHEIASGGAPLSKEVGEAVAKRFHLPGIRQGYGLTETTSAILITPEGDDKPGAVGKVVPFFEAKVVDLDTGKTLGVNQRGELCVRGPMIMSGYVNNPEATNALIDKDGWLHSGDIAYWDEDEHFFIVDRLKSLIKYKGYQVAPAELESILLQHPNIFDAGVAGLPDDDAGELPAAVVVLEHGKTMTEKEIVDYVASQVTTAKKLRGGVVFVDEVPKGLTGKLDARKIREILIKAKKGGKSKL
ASSAY_PROCEDURE: biochemical
TEST_PARAMETERS: enzyme activity, 10 uM ATP; read-out: IC50 or SDR50 (mM) / FLuc E
ASSAY_ENDPOINT: IC50 (µM)
Just the number please, in µM, no unit attached.

COMPOUND	UNIT_ABBREVIATION	IC50
Cc1ccc2[nH]c([C@H]3CCN(Cc4cccs4)C3)nc2c1 [NCGC00397946-01]	µM	20.2

Output measured IC50 for this item: COC(=O)C1CCN(c2csc3ccc(C)cc3c2=O)CC1 [NCGC00132290-01]
7.85

Output measured IC50 for this item: COc1ccc(CNC(=O)Nc2cccc(-c3ccc(N4CCCCC4)nn3)c2)cc1 [NCGC00427646-01]
0.495

Output measured IC50 for this item: Nc1c(C(=O)Nc2ccc(C(=O)O)cc2)sc2nc3c(cc12)CCCC3 [NCGC00100367-01]
0.176

Output measured IC50 for this item: C[C@H](C(=O)N1CCCC1)C1CC[C@@]2(C)Cc3sc(-c4ccccc4)nc3[C@@H](C)[C@@H]2[C@H]1O (stereo partly shown) [NCGC00401417-01]
1.97

Output measured IC50 for this item: CC1CCN(C(=O)c2cc3c(s2)CCC(C(=O)O)C3)CC1 (stereo not shown) [NCGC00432771-01]
14

Output measured IC50 for this item: CN1CCN(c2ccc(-c3cccc(NC(=O)C4CCCCC4)c3)nn2)CC1 [NCGC00427550-01]
8.81

Output measured IC50 for this item: CCN(CC1CCOCC1)C(=O)c1cccnc1SC/C=C/c1ccccc1 [NCGC00433298-01]
12.4

Output measured IC50 for this item: CCCOc1cccc(C(=O)Nc2ccc(-c3nc4ccccc4s3)c(Cl)c2)c1 [NCGC00102006-02]
15.7

Output measured IC50 for this item: CCOC(=O)N1CCc2c(sc(NCc3cccc(F)c3)c2C(=O)Nc2ccc(OC)cc2OC)C1 [NCGC00140797-01]
2.48

Output measured IC50 for this item: Cc1ccc(NC(=O)/C=C/c2ccccc2Cl)cc1Cl [NCGC00098283-01]
3.51

Output measured IC50 for this item: Cc1ccc(-c2cc3c(=O)n(CCNC(=O)c4cccc(C#N)c4)ccn3n2)c(C)c1 [NCGC00456970-01]
3.13

Output measured IC50 for this item: COc1ccccc1OC(C)C(=O)Nc1cccc(-c2nc3ccccc3s2)c1 (stereo not shown) [NCGC00119157-01]
8.81

Output measured IC50 for this item: Cc1nn(-c2ccc(C(C)(C)C)cc2)c(C)c1[C@@H]1C=C[C@@H](NC(=O)c2ccco2)C1 [NCGC00394638-01]
20.2

Output measured IC50 for this item: COc1ccccc1C(=O)Nc1ccc(-c2nc3ccccc3s2)c(C)c1 [NCGC00137840-01]
9.89

Output measured IC50 for this item: c1ccc(Nc2ncc(-c3ccccc3)o2)cc1 [NCGC00242146-02]
0.785

Output measured IC50 for this item: CCOCC1(C)COc2ccc(C(=O)Nc3ccc(Cl)cc3)cc2N1 (stereo not shown) [NCGC00416138-01]
18

Output measured IC50 for this item: Cc1cc(C)cc(Nc2nc(-c3ccccc3F)no2)c1 [NCGC00422314-01]
6.24

Output measured IC50 for this item: Cc1cnc(CCNC(=O)Nc2ccc3c(c2)OCCO3)n1Cc1ccc(F)cc1 [NCGC00469838-01]
12.4

Output measured IC50 for this item: Cc1cccc(OCCn2nnc3sc4c(c3c2=O)CCCC4)c1 [NCGC00117282-01]
12.4

###

ASSAYED_TARGET: FLuc-C-HiBiT (Photinus pyralis)
Construct: firefly luciferase with C-terminal HiBiT tag, E. coli expressed
ASSAY_PROCEDURE: biochemical
TEST_PARAMETERS: enzyme activity, 10 uM ATP; read-out: IC50 or SDR50 (mM) / FLuc E
ASSAY_ENDPOINT: log10 IC50 (log10 of the value in µM)
Log scale reminder: IC50 in µM, then log10 taken.

// solved cases for log10 IC50 follow
COMPOUND	ASSAYED_TARGET	log10 IC50
O=C(Nc1ccc(Cl)cc1)Nc1ccc2n(c1=O)C[C@H]1C[C@@H]2CN(C(=O)c2ccc3ccccc3c2)C1	FLuc-C-HiBiT (Photinus pyralis)	1.09
O=C(O)c1ccc(-c2noc(-c3ccc(Cl)cc3)n2)cc1	FLuc-C-HiBiT (Photinus pyralis)	-0.11
Clc1ccc(-c2cn3cc(Cc4ccccc4)sc3n2)cc1	FLuc-C-HiBiT (Photinus pyralis)	-0.11
COc1ccc(/C=C/c2ccc3c(c2)C(=O)N2CC[C@H](NC(=O)COCC(=O)O)[C@H]2C(=O)N3)cc1	FLuc-C-HiBiT (Photinus pyralis)	1.00

Output measured log10 IC50 for this item: O=C(NCc1cc(F)ccc1F)C1CCN(C(=O)c2ncn3c2COC(c2ccccc2)C3)CC1 (stereo not shown)
0.50

Output measured log10 IC50 for this item: COc1ccc(-c2cc3c(cn2)CN(C(C)=O)CCN3)cc1
1.11

Output measured log10 IC50 for this item: CCOc1ccc(NC(=O)CCc2c(C)nc3cc(-c4ccc(Cl)cc4)nn3c2C)cc1
0.45

Output measured log10 IC50 for this item: CN1CCN(c2ccc(-c3cccc(N)c3)nn2)CC1
0.80

Output measured log10 IC50 for this item: Cc1ccc2c(c1)sc1nc(-c3cc4ccccc4oc3=O)cn12
-0.61

Output measured log10 IC50 for this item: Cc1c(C(=O)Nc2ccc(C(=O)O)cc2)nnn1-c1ccccc1
-1.11

Output measured log10 IC50 for this item: CNc1ccc(-c2nc3ccccc3s2)cc1
-1.11

Output measured log10 IC50 for this item: COc1cccc2cc(C(=O)Nc3ccc(CC(=O)O)cc3)c(=O)oc12
0.50

Output measured log10 IC50 for this item: CC(=O)c1ccc(NC(=O)CSc2nnc(NC(=O)Nc3ccccc3)s2)cc1
-0.06

Output measured log10 IC50 for this item: CN1CCNc2cc(Nc3ccc(F)c(Cl)c3)ncc2C1
1.11

Output measured log10 IC50 for this item: Cc1ccc(-n2ncc3c(N4CCCCCC4)ncnc32)cc1
-0.71

###

ASSAYED_TARGET: FLuc-C-NLuc (firefly luciferase) (Photinus pyralis, UniProt P08659, form not given/L550V)
Sequence (P08659 2-550 L550V, form open): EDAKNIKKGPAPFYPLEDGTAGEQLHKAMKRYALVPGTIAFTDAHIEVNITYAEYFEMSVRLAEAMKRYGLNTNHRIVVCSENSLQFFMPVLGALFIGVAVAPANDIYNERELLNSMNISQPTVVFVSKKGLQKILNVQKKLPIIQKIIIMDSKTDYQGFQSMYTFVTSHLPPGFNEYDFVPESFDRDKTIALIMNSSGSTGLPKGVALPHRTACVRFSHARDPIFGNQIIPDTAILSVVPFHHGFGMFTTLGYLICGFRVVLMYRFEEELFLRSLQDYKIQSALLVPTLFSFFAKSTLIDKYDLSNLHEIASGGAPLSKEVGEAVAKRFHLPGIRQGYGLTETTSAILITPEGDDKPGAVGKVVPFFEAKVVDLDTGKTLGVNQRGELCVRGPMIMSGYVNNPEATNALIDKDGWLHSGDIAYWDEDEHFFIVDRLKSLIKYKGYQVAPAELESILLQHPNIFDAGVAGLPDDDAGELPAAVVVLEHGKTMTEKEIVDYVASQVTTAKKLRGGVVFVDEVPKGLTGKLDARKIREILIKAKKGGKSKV
ASSAY_PROCEDURE: SDR assay, FLuc-C-NLuc
TEST_PARAMETERS: Log[Compound], M -8.30; absence of ATP
# SDR per record follows
Answer with the value's number alone.

// solved cases for SDR follow
COMPOUND	SDR
CC(NC(=O)C1CCN(C(=O)c2ncn3c2COC(c2ccc(F)cc2)C3)CC1)c1ccc(F)cc1 (centres unmarked) [NCGC00449825]	4.00
COc1ccc(NC(=O)C2CCN(C(=O)c3ncn4c3COC(c3ccccc3)C4)CC2)cc1Cl (centres unmarked) [NCGC00449919]	12.41
CC(CNC(=O)C1CCN(C(=O)c2ncn3c2COC(c2ccccc2)C3)CC1)c1ccccc1 (centres unmarked) [compound 00449795]	10.95
CC1CCC(NC(=O)C2CCN(C(=O)c3ncn4c3COC(c3ccc(Cl)cc3)C4)CC2)CC1 (centres unmarked) [NCGC00449845]	4.33

Output measured SDR for this item: O=C(Nc1cccc(F)c1)C1CCN(C(=O)c2ncn3c2COC(c2ccccc2)C3)CC1 (centres unmarked) [NCGC00449914]
7.88

###

ASSAYED_TARGET: T7 Lig-C-HiBiT (DNA ligase) (Escherichia phage T7, UniProt P00969)
Sequence (P00969 2-359): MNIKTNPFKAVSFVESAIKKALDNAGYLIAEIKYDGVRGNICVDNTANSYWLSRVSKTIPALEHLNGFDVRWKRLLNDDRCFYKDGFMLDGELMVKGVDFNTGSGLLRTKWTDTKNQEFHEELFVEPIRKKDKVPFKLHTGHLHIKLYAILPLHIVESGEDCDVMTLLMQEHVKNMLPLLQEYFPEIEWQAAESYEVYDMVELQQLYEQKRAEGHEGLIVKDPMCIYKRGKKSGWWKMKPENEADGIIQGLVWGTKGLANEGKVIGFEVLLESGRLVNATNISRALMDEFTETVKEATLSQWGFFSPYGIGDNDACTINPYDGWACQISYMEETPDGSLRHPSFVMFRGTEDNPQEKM
ASSAY_PROCEDURE: SDR assay (aqueous ligand dispense), T7 Lig-C-HiBiT
pEC50: −log10 of the molar value.
ASSAY_ENDPOINT: pEC50

Output measured pEC50 for this item: Nc1ncnc2c1ncn2[C@@H]1O[C@H](COP(=O)(O)OP(=O)(O)OP(=O)(O)O)[C@@H](O)[C@H]1O [ATP]
≤ 4.00

###

ASSAYED_TARGET: FLuc-C-NLuc (firefly luciferase) (Photinus pyralis, UniProt P08659, form not given/L550V)
ASSAY_PROCEDURE: SDR assay, FLuc-C-NLuc
TEST_PARAMETERS: Log[Compound], M -4.48; 10 mM ATP
Rule: SDR+ATP under 6 gives not satisfied, otherwise satisfied.

Examples with answers:
COMPOUND	LABEL_CLASS
CC(NC(=O)C1CCN(C(=O)c2ncn3c2COC(c2ccc(F)cc2)C3)CC1)c1ccc(F)cc1 (centres unmarked) [NCGC00449825]	not satisfied
CC(CNC(=O)C1CCN(C(=O)c2ncn3c2COC(c2ccccc2)C3)CC1)c1ccccc1 (centres unmarked) [compound 00449795]	satisfied
CC1CCC(NC(=O)C2CCN(C(=O)c3ncn4c3COC(c3ccc(Cl)cc3)C4)CC2)CC1 (centres unmarked) [NCGC00449845]	satisfied
O=C(Nc1cccc(F)c1)C1CCN(C(=O)c2ncn3c2COC(c2ccccc2)C3)CC1 (centres unmarked) [NCGC00449914]	satisfied

Read the next record carefully.
In plain terms: is recorded SDR+ATP at least 6 for COc1ccc(NC(=O)C2CCN(C(=O)c3ncn4c3COC(c3ccccc3)C4)CC2)cc1Cl (centres unmarked) [NCGC00449919] ?
satisfied

Numbers sourced from paper PMC12064818.
